Details: 298.15 K; 101 kPa; Liquid; Vibrating tube method
Experimental Endpoint: mass density (kg/m3)

>>> print(df.to_string())
                          compound  experimental_endpoint  recorded_value
0  CCCOC(=O)CC [propyl propanoate]           mass density          875.61
1  CCCOC(=O)CCC [propyl butanoate]           mass density           867.9
2      CCCOC=O [propyl methanoate]           mass density          899.81
3    CCCOC(C)=O [propyl ethanoate]           mass density          882.08
